B1: ADAMTS4 (parent)
chain: HVDPEEPWSPCSARFITDFLDNGY

- Variants of: B1
- protocol: protein stability index of a GFP-peptide fusion (GPS, HEK-293T) (PSI 1-6); higher = more stable;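 also: lentivirally expressed fusions sorted by FACS into six bins by GFP to DsRed ratio, PSI derived from sequencing read proportions per bin multiplied by bin number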
- assay.conditions: c terminus: a fixed tail appended
The threshold is inclusive: protein stability index of exactly 2 counts as Satisfied; values below receive Not satisfied.

Examples from the recorded data:
D3M = Not satisfied
E5G = Satisfied
E6R = Satisfied
L20I = Not satisfied
D3A = Not satisfied
V2K = Satisfied
D3I = Not satisfied
S9W = Not satisfied

Next up:
Record `E6M` ; criterion: protein stability index no lower than 2. Met?
Satisfied
